Data origin: the supplement of paper PMC10126150

# System: ATP;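 also: ATP exposure 15 min at 22 °C before imaging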
# ASSAY_SUMMARY: switch fluorescence ratio, 500 uM ATP over buffer (Cy3 cluster intensity, sum of 5 cycles each) (fold (ratio)); higher = stronger signal-on switching upon ATP binding; sequences stand for … in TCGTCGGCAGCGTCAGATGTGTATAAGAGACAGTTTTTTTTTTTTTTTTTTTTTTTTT…TC
# MEASUREMENT_PARAMETERS: aptamer strand: ATP DNA aptamer (quencher-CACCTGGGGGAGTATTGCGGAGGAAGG + anchor), 100 nM annealed; ATP concentration: 500 uM
Assign condition met to entries whose switch fluorescence ratio meets or exceeds 1; assign condition not met to the rest.

Consider the worked cases shown below.
| SEQ | LABEL |
| --- | --- |
| CTTTGTTACG | condition met |
| CGGTGAGTGT | condition not met |
| CGGTTGGCGT | condition met |
| GAGGTTGACA | condition met |
| ACAAACGGCA | condition met |
| ATGTTGATCC | condition met |
| TGCAGGGATC | condition met |
| TCGCTTACTG | condition met |
| TATTAAATTT | condition met |
| TGCGGAGAAT | condition met |

switch fluorescence ratio >= 1 for `GCAAATGCGT` ?
condition met

switch fluorescence ratio >= 1 for `ATCGCATGTC` ?
condition met

switch fluorescence ratio >= 1 for `AGGGAGGTTT` ?
condition not met

====

# Tested on: ATP;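 also: ATP exposure 15 min at 22 °C before imaging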
# ASSAY_SUMMARY: switch fluorescence ratio, 500 uM ATP over buffer (Cy3 cluster intensity, sum of 5 cycles each) (fold (ratio)); higher = stronger signal-on switching upon ATP binding; sequences stand for … in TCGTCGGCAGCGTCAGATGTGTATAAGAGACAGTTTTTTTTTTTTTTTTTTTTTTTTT…TC
# MEASUREMENT_PARAMETERS: aptamer strand: ATP DNA aptamer (quencher-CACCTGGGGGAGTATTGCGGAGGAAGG + anchor), 100 nM annealed; ATP concentration: 500 uM
OBSERVED_PROPERTY: switch fluorescence ratio
Give bare numbers.

Some entries whose results are on file:
| SEQ | switch fluorescence ratio |
| --- | --- |
| GGGTAAGCTT | 0.996 |
| GAGGGCATTT | 0.985 |
| GTTTTGAACA | 0.983 |
| TATGGTGGAG | 0.981 |

Required: switch fluorescence ratio, one value per sequence below.
1. AGAAACCGTT
2. TTTTTAAAGG

1.03
0.976

====

# System: ATP;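 also: ATP exposure 15 min at 22 °C before imaging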
# ASSAY_SUMMARY: switch fluorescence ratio, 500 uM ATP over buffer (Cy3 cluster intensity, sum of 5 cycles each) (fold (ratio)); higher = stronger signal-on switching upon ATP binding; sequences stand for … in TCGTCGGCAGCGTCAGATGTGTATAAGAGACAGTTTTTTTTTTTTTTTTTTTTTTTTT…TC
# MEASUREMENT_PARAMETERS: aptamer strand: ATP DNA aptamer (quencher-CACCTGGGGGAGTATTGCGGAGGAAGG + anchor), 100 nM annealed; ATP concentration: 500 uM
Could you please report measured switch fluorescence ratio for the items listed next?
One number for each entry.

Some entries whose results are on file:
| SEQ | switch fluorescence ratio |
| --- | --- |
| TTTGAAGCAT | 1 |
| CAGCGTTGTT | 0.993 |
| TGATAGGAAG | 1 |
| TTTCGGGAGT | 0.976 |
| ACAGTAAGAG | 1.03 |

Required: switch fluorescence ratio, one value per sequence below.
1. TCTGGTGGTT
2. TAAATATCGT
3. GAACTCGGGG
4. GGCGCTTAGA

[0.981, 1, 1.02, 1]
